- Test system: FMOC24 (patient-derived high-grade serous ovarian cancer cells)
- Assay protocol: drug sensitivity score (DSS3, normalised partial AUC of % inhibition dose-response) (DSS (score)); higher = more sensitive (stronger inhibition of viability); extreme values may be limits of the assay
- Condition context: 72 h; library: FO5A; assay format: 2D, 384-well, CellTiter-Glo
Test readout: drug sensitivity score
API doc: respond with a numeric literal and nothing else, no unit.

- Compound: "O=C(Nc1ccc(OC(F)(F)Cl)cc1)c1cnc(N2CC[C@@H](O)C2)c(-c2cc[nH]n2)c1 [Asciminib]"
  Tested target: "FMOC24"
  Test readout: "drug sensitivity score"
  Result number: 0.9

Could you now look at the following compound, please?
Value sought: drug sensitivity score, system FMOC24, item NC(=O)/C(=C/n1cnc(-c2cc(C(F)(F)F)cc(C(F)(F)F)c2)n1)c1cncnc1 [Eltanexor] . Result: 23.7

====

Measured drug sensitivity score by item
- Tested on: FMOC24
- Assay protocol: drug sensitivity score (DSS3, normalised partial AUC of % inhibition dose-response) (DSS (score)); higher = more sensitive (stronger inhibition of viability); extreme values may be limits of the assay
- Condition context: 72 h; library: FO5A; assay format: 2D, 384-well, CellTiter-Glo
API doc: respond with a numeric literal and nothing else, no unit.

The following compounds have reported results that may help.
- Compound: "CCN(CC)CCCC(C)Nc1c2ccc(Cl)cc2nc2ccc(OC)cc12 (centres undefined)"
  Tested target: "FMOC24"
  Test readout: "drug sensitivity score"
  Result number: 20.2
- Compound: "Nc1ncn([C@H]2C[C@H](O)[C@@H](CO)O2)c(=O)n1"
  Tested target: "FMOC24"
  Test readout: "drug sensitivity score"
  Result number: 7.4
- Compound: "CC(C)(C#N)c1cc(Cn2cncn2)cc(C(C)(C)C#N)c1"
  Tested target: "FMOC24"
  Test readout: "drug sensitivity score"
  Result number: 0
- Compound: "NS(=O)(=O)NCCNc1nonc1/C(=N/O)Nc1ccc(F)c(Br)c1"
  Tested target: "FMOC24"
  Test readout: "drug sensitivity score"
  Result number: 0.1
- Compound: "C=CC(=O)N1CCC[C@@H](n2nc(-c3ccc(Oc4ccccc4)cc3)c3c(N)ncnc32)C1"
  Tested target: "FMOC24"
  Test readout: "drug sensitivity score"
  Result number: 0.5
- Compound: "C=CC(=O)Nc1cccc(Nc2nc(Nc3ccc(OCCOC)cc3)ncc2F)c1"
  Tested target: "FMOC24"
  Test readout: "drug sensitivity score"
  Result number: 0
- Compound: "CNC(=O)c1ccc(C)c(-n2c(C)cc(OCc3ccc(F)cc3F)c(Br)c2=O)c1"
  Tested target: "FMOC24"
  Test readout: "drug sensitivity score"
  Result number: 0
- Compound: "CN1CCN(c2ccc3nc(-c4c(N)c5c(F)cccc5[nH]c4=O)[nH]c3c2)CC1"
  Tested target: "FMOC24"
  Test readout: "drug sensitivity score"
  Result number: 1.6

Could you now look at the following compound, please?
Item: CON(C)C(=O)N1N=C(c2cc(F)ccc2F)S[C@@]1(CCCN)c1ccccc1 | drug sensitivity score: 0

====

- Test system: FMOC03 (patient-derived mucinous ovarian cancer cells)
- Assay protocol: drug sensitivity score (DSS3, normalised partial AUC of % inhibition dose-response) (DSS (score)); higher = more sensitive (stronger inhibition of viability); extreme values may be limits of the assay
- Condition context: 72 h; library: FO5A; assay format: 2D, 384-well, CellTiter-Glo
Measured drug sensitivity score by item
API doc: respond with a numeric literal and nothing else, no unit.

- Compound: "CC(C)n1cnc2c(NCCc3ccc(O)cc3)nc(-c3csc4ccccc34)nc21 [StemRegenin 1]"
  drug sensitivity score: 4.8
- Compound: "C=C1C[C@@H]2[C@H](CC[C@]3(C)C(=O)CC[C@@H]23)[C@@]2(C)C=CC(=O)C=C12 [Exemestane]"
  drug sensitivity score: 0

Item: CN(C)Cc1ccc(S(=O)(=O)n2ccc(/C=C/C(=O)NO)c2)cc1 [Resminostat] | drug sensitivity score: 8.1

Item: CN(c1ncccc1CNc1nc(Nc2ccc3c(c2)CC(=O)N3)ncc1C(F)(F)F)S(C)(=O)=O | drug sensitivity score: 7.1

Item: CCc1c(C(=O)C(N)=O)c2c(OCC(=O)O)cccc2n1Cc1ccccc1 [Varespladib] | drug sensitivity score: 0
